Just for reference, BindingDB's records for doi:10.1124/mol.64.6.1295 is where these values come from.

Where a name gives a salt, the structure may show the parent alone.
Please go through the items and note down their Ki.
Quick note: unit goes after the number.

Incoming: Give 5-hydroxytryptamine receptor 6 (Mus musculus, UniProt Q9R1C8) Ki for CNS(=O)(=O)Cc1ccc2[nH]cc(CCN(C)C)c2c1 [Sumax]
Outgoing: 5620 nM

Incoming: Give 5-hydroxytryptamine receptor 6 (Mus musculus, UniProt Q9R1C8) Ki for CN1CCN2c3ccccc3Cc3ccccc3C2C1 (centres undefined) [MIANSERIN HYDROCHLORIDE]
Outgoing: 3.24 nM

Incoming: Give 5-hydroxytryptamine receptor 6 (Mus musculus, UniProt Q9R1C8) Ki for COc1ccc(NS(=O)(=O)c2ccc(I)cc2)cc1N1CCN(C)CC1 [SB-258585]
Outgoing: 11.2 nM

Incoming: Give 5-hydroxytryptamine receptor 6 (Mus musculus, UniProt Q9R1C8) Ki for CN(C)CCC=C1c2ccccc2CCc2ccccc21
Outgoing: 89.1 nM

Incoming: Give 5-hydroxytryptamine receptor 6 (Mus musculus, UniProt Q9R1C8) Ki for CN1CCN(C2=c3ccccc3=Nc3ccc(Cl)cc3N2)CC1
Outgoing: 6.46 nM

Incoming: Give 5-hydroxytryptamine receptor 6 (Mus musculus, UniProt Q9R1C8) Ki for CCN(CC)C(=O)C1C=C2c3cccc4[nH]cc(c34)CC2N(C)C1 (centres undefined) [NSC_3981]
Outgoing: 2.82 nM

Incoming: Give 5-hydroxytryptamine receptor 6 (Mus musculus, UniProt Q9R1C8) Ki for COc1ccc(NS(=O)(=O)c2sc3ccc(Cl)cc3c2C)cc1N1CCNCC1
Outgoing: 1.23 nM

Incoming: Give 5-hydroxytryptamine receptor 6 (Mus musculus, UniProt Q9R1C8) Ki for COc1ccc(S(=O)(=O)Nc2cc(Br)cc(F)c2Br)cc1N1CCNCC1
Outgoing: 61.7 nM

Incoming: Give 5-hydroxytryptamine receptor 6 (Mus musculus, UniProt Q9R1C8) Ki for NCCc1c[nH]c2ccc(O)cc12 [[3H]-5-HT]
Outgoing: 95.5 nM
